- assayed-target: PAK4 kinase domain (PAK4 KD) (Homo sapiens (Human))
- Sequence (O96013 321-572): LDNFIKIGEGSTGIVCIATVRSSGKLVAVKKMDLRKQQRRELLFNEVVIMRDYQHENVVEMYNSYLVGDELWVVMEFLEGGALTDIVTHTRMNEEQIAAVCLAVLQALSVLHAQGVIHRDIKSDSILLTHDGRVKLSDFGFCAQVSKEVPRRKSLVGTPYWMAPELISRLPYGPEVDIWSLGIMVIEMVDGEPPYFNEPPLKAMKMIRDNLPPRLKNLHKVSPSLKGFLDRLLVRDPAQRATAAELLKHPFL
- protocol-details: PAK4 kinase domain enzymatic assay (coupled PK/LDH, NADH absorbance at 340 nm)
- Type: biochemical
- measurement-conditions: PAK4 kinase domain, 25 nM PAK4 KD, 0.04 mM ATP, pH 7.5
pKi: −log10 of the molar value.
property-measured: pKi

>>> measured_number("Cc1csc2c(Nc3n[nH]c4c3CN(C(=O)N[C@H]3C[C@@H]3c3ccccc3)C4(C)C)ncnc12 (relative stereo) [Example 49]")
6.80
>>> measured_number("CC1(C)c2[nH]nc(Nc3ncncc3F)c2CN1C(=O)N[C@H]1C[C@@H]1c1ccccc1 (relative stereo) [Example 48]")
6.00
>>> measured_number("CC1(C)c2[nH]nc(Nc3nccc(C(F)(F)F)n3)c2CN1C(=O)N[C@H]1C[C@@H]1c1ccccc1 (relative stereo) [Example 28]")
6.57
